Item-by-item account of selectivity ratio
- Measurement notes: Selectivity index, ratio of CC50 for human MT4 cells to EC50 for wild-type HIV1 3B infected in MT4 cells
- Type: toxicity, cell-based
- Measurement parameters: read-out: Ratio CC50/EC50
I'd appreciate a reply containing only the number, no unit.

Example cases with answers are listed next.
Molecule smiles: COc1ccnc(Nc2ccc(Cl)c(OCc3ccccc3C)c2)n1
selectivity ratio: 106
//
Molecule smiles: COc1ccnc(Nc2ccc(Cl)c(OCc3ccccc3Cl)c2)n1
selectivity ratio: 143
//
Molecule smiles: COc1ccnc(Nc2ccc(Cl)c(OCc3ccc(Br)cc3)c2)n1
selectivity ratio: 10

Proceeding to the next compound to report its selectivity ratio.
Supply selectivity ratio value. Item: COc1ccnc(Nc2ccc(Cl)c(OCc3ccccc3Br)c2)n1
158

====

The following compounds are listed with their measured log10 EC50 values.
- Test system: Human immunodeficiency virus 1
- Measurement notes: Antiviral activity against wild-type HIV1 3B infected in MT4 cells assessed as reduction in virus-induced cytopathic effect after 5 days by MTT assay
- Type: functional, organism-based
- Measurement parameters: Human immunodeficiency virus 1, 3B, MT4, 120 h
Note the log scale: values are log10 of EC50 expressed in nM.

Guide cases for log10 EC50, answers given:
Compound: COc1ccnc(Nc2ccc(Cl)c(OCc3ccccc3Cl)c2)n1
log10 EC50: 2.36
//
Compound: COc1ccnc(Nc2ccc(Cl)c(OCc3ccccc3F)c2)n1
log10 EC50: 1.70
//
Compound: O=C1Nc2ccc(Cl)cc2[C@@](C#CC2CC2)(C(F)(F)F)O1 [EFAVIRENZ]
log10 EC50: 0.95
//
Compound: COc1ccc(COc2cc(Nc3nccc(OC)n3)ccc2Cl)cc1
log10 EC50: 3.89
//
Compound: Cc1ccnc2c1NC(=O)c1cccnc1N2C1CC1 [NEVIRAPINE]
log10 EC50: 2.05
//
Compound: COc1ccnc(Nc2ccc(Cl)c(OCc3ccc(Cl)cc3)c2)n1
log10 EC50: 3.89
//
Compound: COc1ccnc(Nc2ccc(Cl)c(OCc3ccccc3Br)c2)n1
log10 EC50: 2.52
//
Compound: COc1ccnc(Nc2ccc(Cl)c(OCc3cccc(Cl)c3)c2)n1
log10 EC50: 2.36
//
Compound: COc1ccnc(Nc2ccc(Cl)c(OCc3cccc(Br)c3)c2)n1
log10 EC50: 2.88
//
Compound: COc1ccnc(Nc2ccc(Cl)c(OCc3ccc(Br)cc3)c2)n1
log10 EC50: 4.36

Could you please provide reported log10 EC50 for COc1ccnc(Nc2ccc(Cl)c(OCc3ccc(F)cc3)c2)n1 ? Thanks!
2.85

Provide only the value of recorded log10 EC50 for COc1ccnc(Nc2ccc(Cl)c(OCc3cccc(F)c3)c2)n1
1.85

Name the recorded log10 EC50 of the item COc1ccnc(Nc2ccc(Cl)c(OCc3ccc(C#N)cc3)c2)n1 in your answer.
4.23

Determine its reported log10 EC50: COc1ccnc(Nc2ccc(Cl)c(OCc3ccc(C(N)=O)cc3)c2)n1
4.54

Provide only the value of recorded log10 EC50 for COc1ccnc(Nc2ccc(Cl)c(OCc3ccccc3C)c2)n1
1.91

Look up and report measured log10 EC50 for this entry: COc1ccnc(Nc2ccc(Cl)c(OCc3ccccc3)c2)n1
1.88

Identify measured log10 EC50 associated with COc1ccnc(Nc2ccc(Cl)c(OCc3ccccc3C#N)c2)n1
2.18

====

- Measurement notes: Cytotoxicity against mock-infected human MT4 cells after 5 days by MTT assay
- Format: cell-based
Result type: CC50 at 120 h (µM)
Write the number in µM without appending the unit.

Recorded CC50 at 120 h, per entry:
Molecule smiles: COc1ccnc(Nc2ccc(Cl)c(OCc3ccccc3Br)c2)n1
Measure unit: µM
CC50 at 120 h: 52
--
Molecule smiles: COc1ccnc(Nc2ccc(Cl)c(OCc3ccc(Cl)cc3Cl)c2)n1
Measure unit: µM
CC50 at 120 h: 77
--
Molecule smiles: COc1ccnc(Nc2ccc(Cl)c(OCc3ccccc3)c2)n1
Measure unit: µM
CC50 at 120 h: 62
--
Molecule smiles: COc1ccnc(Nc2ccc(Cl)c(OCc3ccccc3C#N)c2)n1
Measure unit: µM
CC50 at 120 h: 199
--
Molecule smiles: COc1ccnc(Nc2ccc(Cl)c(OCc3ccc(Br)cc3)c2)n1
Measure unit: µM
CC50 at 120 h: 224
--
Molecule smiles: COc1ccnc(Nc2ccc(Cl)c(OCc3ccc(C#N)cc3)c2)n1
Measure unit: µM
CC50 at 120 h: 283
--
Molecule smiles: COc1ccnc(Nc2ccc(Cl)c(OCc3ccccc3F)c2)n1
Measure unit: µM
CC50 at 120 h: 42

Kindly consider the entry below.
Specify CC50 at 120 h for COc1ccnc(Nc2ccc(Cl)c(OCc3ccccc3C)c2)n1 and stop.
8.8

====

- System under test: Human immunodeficiency virus type 1 reverse transcriptase (Human immunodeficiency virus 1)
Result type: pIC50
Entry type: numeric. Quantity: pIC50, the -log10 of concentration in molar units.

# assay system Human immunodeficiency virus type 1 reverse transcriptase (Human immunodeficiency virus 1): give pIC50 of COc1ccnc(Nc2ccc(Cl)c(OCc3cccc(F)c3)c2)n1
5.82

====

- Measurement notes: Selectivity index, ratio of CC50 for human MT4 cells to EC50 for wild-type HIV1 3B infected in MT4 cells
- Format: toxicity, cell-based
- Measurement parameters: read-out: Ratio CC50/EC50
Overview of recorded selectivity ratio for various molecules
Answer field: number only, no words.

Molecule smiles: COc1ccnc(Nc2ccc(Cl)c(OCc3ccccc3F)c2)n1
selectivity ratio: 777

Molecule smiles: COc1ccnc(Nc2ccc(Cl)c(OCc3ccc(F)cc3)c2)n1
selectivity ratio: 309

Using known records, supply selectivity ratio for COc1ccnc(Nc2ccc(Cl)c(OCc3ccc(C#N)cc3)c2)n1
17

====

- Measurement notes: Cytotoxicity against mock-infected human MT4 cells after 5 days by MTT assay
- Type: cell-based
Documented CC50 at 120 h across a set of compounds

Please review the entries below; each comes with its answer.
Molecule smiles: COc1ccnc(Nc2ccc(Cl)c(OCc3ccc(C(N)=O)cc3)c2)n1
Result type: CC50 at 120 h
Measured result: > 325 µM
--
Molecule smiles: COc1ccnc(Nc2ccc(Cl)c(OCc3ccc(Cl)cc3)c2)n1
Result type: CC50 at 120 h
Measured result: 95 µM

Now take the following compound into account.
Hello, please tell me recorded CC50 at 120 h for this one: COC(=O)c1ccc(COc2cc(Nc3nccc(OC)n3)ccc2Cl)cc1
≥ 106 µM

====

# pEC50 values compiled below
- Tested on: Human immunodeficiency virus 2
- Measurement notes: Antiviral activity against HIV2 ROD infected in MT4 cells assessed as reduction in virus-induced cytopathic effect after 5 days by MTT assay
- Assay type: functional, organism-based
- Measurement parameters: Human immunodeficiency virus 2, ISOLATE ROD, MT4, 120 h
pEC50: −log10 of the molar value.

Some solved cases for reference:
Molecule smiles: COc1ccnc(Nc2ccc(Cl)c(OCc3ccccc3F)c2)n1
System under test: Human immunodeficiency virus 2
pEC50: < 4.38
//
Molecule smiles: COc1ccnc(Nc2ccc(Cl)c(OCc3ccc(Br)cc3)c2)n1
System under test: Human immunodeficiency virus 2
pEC50: < 3.65

Lab note: record pEC50 of COc1ccc(COc2cc(Nc3nccc(OC)n3)ccc2Cl)cc1 tested on Human immunodeficiency virus 2.
< 3.54

Please tell me the measured pEC50 for COc1ccnc(Nc2ccc(Cl)c(OCc3cccc(Br)c3)c2)n1 ; system: Human immunodeficiency virus 2.
< 3.53

Fill: pEC50 (Human immunodeficiency virus 2) for this molecule COc1ccnc(Nc2ccc(Cl)c(OCc3ccc(C(N)=O)cc3)c2)n1
< 3.49

Lab note: record pEC50 of COC(=O)c1ccc(COc2cc(Nc3nccc(OC)n3)ccc2Cl)cc1 tested on Human immunodeficiency virus 2.
< 5.80

Write pEC50 of COc1ccnc(Nc2ccc(Cl)c(OCc3ccc(Cl)cc3)c2)n1 ; system used: Human immunodeficiency virus 2
< 4.02

Report value: pEC50, system: Human immunodeficiency virus 2, molecule: COc1ccnc(Nc2ccc(Cl)c(OCc3cccc(F)c3)c2)n1
< 3.46

State, for Human immunodeficiency virus 2, measured pEC50 of the molecule listed here: COc1ccnc(Nc2ccc(Cl)c(OCc3ccccc3Cl)c2)n1
< 4.48

Enter recorded pEC50 with Human immunodeficiency virus 2 for COc1ccnc(Nc2ccc(Cl)c(OCc3ccccc3C#N)c2)n1 here.
< 3.70

====

- Measurement notes: Cytotoxicity against mock-infected human MT4 cells after 5 days by MTT assay
- Assay type: cell-based
Result type: CC50 at 120 h

Molecule smiles: COc1ccnc(Nc2ccc(Cl)c(OCc3ccc([N+](=O)[O-])cc3)c2)n1
Measured result: > 323 µM
--
Molecule smiles: COc1ccnc(Nc2ccc(Cl)c(OCc3cccc(F)c3)c2)n1
Measured result: > 347 µM
--
Molecule smiles: COc1ccnc(Nc2ccc(Cl)c(OCc3ccccc3Cl)c2)n1
Measured result: 33 µM

Report CC50 at 120 h, nothing else, for this compound: COc1ccnc(Nc2ccc(Cl)c(OCc3ccc(F)cc3)c2)n1
218 µM

Tell me measured CC50 at 120 h for COc1ccnc(Nc2ccc(Cl)c(OCc3cccc(Cl)c3)c2)n1 please.
> 332 µM

Output measured CC50 at 120 h for this item: COc1ccc(COc2cc(Nc3nccc(OC)n3)ccc2Cl)cc1
≥ 290 µM
